Measured growth by item
System: SNB-75 CNS
ASSAY NOTES: NCI-60 one-dose screen, 48 h (100 = growth as untreated, 0 = no growth, -100 = all killed)
EXPERIMENTAL CONDITIONS: 10 µM unless noted
About 83,000 compounds went through this panel and 20% of them were active in at least one assay; those are over-represented in the sample as a whole.
REPORTED ENDPOINT: growth (%)

1. CCCCCOC(=O)c1cccc(NC(=O)CN(CC)CC)c1; 103
2. N#Cc1c(N)n2c(nc1=Nc1ccc([N+](=O)[O-])cc1)sc1cc(Cl)ccc12; 60.9
3. CN1CCC(=C2c3ccccc3C=Cc3ccccc32)CC1; 47.8
4. CC(C)(C)CC(C)(C)Nc1c(-c2ccc(-c3ccccc3)cc2)nc2cnccn12; 88.7
5. COc1ccc(-c2nnc(SCC(=O)NC3=NN=C(c4ccccc4)CS3)o2)cc1; 88.1
6. O=C1Nc2ccccc2SC1c1ccccc1Cl (stereo unspecified); 34.5
7. N=C(N)c1ccc(-c2ccc(-c3ccc(Cl)c(Cl)c3)o2)cc1; 78.6
8. O=C(Nc1ccccc1Cl)OCCN1CCOCC1; 111
9. C[C@@H](C[C@H](CCOCc1cccnc1)c1ccccc1)c1cc2ccccc2o1; 85.6
10. NC(=O)CC1(O)C=C(Br)C(=O)C(Br)=C1; 76.4
11. CCOC(=O)c1nnn(C(Cc2ccccc2Cl)C(=O)OCC)c1C (stereo unspecified); 89.5
